B1: library; a variant is named by its letters at N, in order (parent)
chain: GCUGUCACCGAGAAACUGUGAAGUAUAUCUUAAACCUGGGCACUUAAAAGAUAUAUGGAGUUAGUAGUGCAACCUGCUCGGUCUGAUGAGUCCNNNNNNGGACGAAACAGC

- Variants of: B1
- assay procedure: normalized RNA/DNA level with ligand (relative to sTRSVctl = 100) (log10 (% of sTRSVctl)); HEK293T; ligand: cyclic di-GMP (c-di-GMP-II aptamer); ligand concentration (+) RNA-Seq: 1 mM; higher = less ribozyme self-cleavage, higher mRNA level
- assay context: reporter: mCherry (pCS4076), ligand present: yes
The reader will find reported normalized RNA/DNA level with ligand (log10) values listed item by item below.
endpoint name: normalized RNA/DNA level with ligand (log10)

| mutations | result |
| --- | --- |
| UAUUAA | 1.87 |
| AACUGU | 1.85 |
| GAAUUC | 1.92 |
| UUCAGC | 1.9 |
| GCUACU | 1.81 |
| GACAGU | 1.79 |
| CAAGAA | 1.48 |
| UUUUGG | 1.93 |
| AACGCA | 1.83 |
| CGAGGA | 1.65 |
| AGUUUC | 1.85 |
| UUAAGA | 1.76 |
| GAGGUA | 1.77 |
| CACUGA | 1.77 |
| GCCAGC | 1.83 |
| GGGAUC | 1.77 |
| UCGGUA | 1.52 |
| UCUAGA | 1.88 |
| UAAGGU | 1.77 |
| ACUCGU | 1.85 |
| GGCUGC | 1.83 |
| UAAGUC | 1.8 |
| GAACAC | 1.78 |
| CCUAGU | 1.85 |
| ACCGGU | 1.76 |
| CUCUAU | 1.77 |
| CCGGUG | 1.46 |
| UAUUGA | 1.83 |
| GUCCAU | 1.83 |
| UGGCCG | 1.96 |
| UACGAC | 1.82 |
| UAAAGA | 1.73 |
| AUCGCU | 1.81 |
| CUUGUA | 1.77 |
| CACCGA | 1.8 |
| GCAAUA | 1.63 |
| UGAGCA | 1.91 |
| CGGAUA | 1.3 |
| UUUCGU | 1.86 |
| GAUUAA | 1.74 |
| UUAUAG | 1.8 |
| AUUAUG | 1.77 |
| GCUAUU | 1.74 |
| CCAUAA | 1.67 |
| ACCAGU | 1.8 |
| UAACGG | 1.82 |
| GAGCGG | 1.96 |
| UCACUA | 1.73 |
| GUCUAC | 1.89 |
| CGACUU | 1.63 |
| UAUCAA | 1.83 |
| UUACGG | 1.9 |
| GGCCUC | 1.83 |
| CUGGUC | 1.8 |
| ACAAAC | 1.72 |
| UUGUUC | 1.89 |
| UAGGUG | 1.77 |
| GAAGGG | 1.69 |
| GGCUAA | 1.71 |
| CUUUAA | 1.54 |
| AUCGUA | 1.72 |
| CAAUUC | 1.82 |
| UGAGGU | 1.79 |
| AAGUAC | 1.8 |
| GAGUCU | 1.85 |
| AGGAAG | 1.52 |
| UCGUUC | 1.88 |
| UUAGAA | 1.73 |
| ACGGGC | 1.88 |
| GAUAGG | 1.73 |
| UUAAUC | 1.83 |
| UAUUAC | 1.87 |
| CGAGAA | 1.55 |
| GAUAGC | 1.76 |
| GCCCCG | 1.84 |
| AUACAG | 1.77 |
| CCUCGC | 1.82 |
| AGAAUC | 1.78 |
| GUUGGU | 1.77 |
| CCGUAG | 1.55 |
| AGACGA | 1.73 |
| GAAGAU | 1.65 |
| UGACUG | 1.84 |
| UGGUGG | 1.81 |
| GACAAA | 1.66 |
| GUAUCA | 1.78 |
| CUCUCC | 1.91 |
| CGAACC | 1.8 |
| GCCUUC | 1.79 |
| AUAAGG | 1.71 |
| UCCUAC | 1.87 |
